- System: AML primary cells
- Assay Info: Viability assay: ex-vivo drug testing of AML primary cells with kinase inhibitors (Guava ViaCount, 72h)
- Format: cell-based, human
- Condition Parameters: 1 μM dose, 72h, 36 AML cases, ex vivo
Endpoint Label: number of AML cases whose viability was reduced by >50% relative to DMSO control

[Q] Any idea what its number of AML cases whose viability was reduced by >50% relative to DMSO control is? The compound is CC(=O)Nc1cccc(-n2c(=O)n(C3CC3)c(=O)c3c(Nc4ccc(I)cc4F)n(C)c(=O)c(C)c32)c1 [MEKi, trametinib]
[A] 8/36

[Q] Follow-up item: CO[C@@H]1[C@H](N(C)C(=O)c2ccccc2)C[C@H]2O[C@]1(C)n1c3ccccc3c3c4c(c5c6ccccc6n2c5c31)C(=O)NC4 [FLT3/PKCi, midostaurin]
[A] 9/36

[Q] Follow-up item: Cc1nc(Nc2[nH]nc3c2CN(C(=O)N[C@H](CN(C)C)c2ccccc2)C3(C)C)c2sccc2n1 [PAKi, PF-3758309]
[A] 18/36

[Q] Follow-up item: CCc1nc(-c2cccc(C)c2)c(-c2ccnc(NC(=O)c3ccccc3)c2)s1 [P38i, TAK-715]
[A] 3 AML cases

[Q] Follow-up item: O=C(O)c1ccc2c(c1)nc(Nc1cccc(Cl)c1)c1ccncc12 [CK2i, silmitasertib]
[A] 8/36
